molecular target: Neu5Ac(a2-3)Gal(b1-4)[Fuc(a1-3)]GlcNAc(b1-3)Gal; experiment: glycan array binding signal (z-score within array); higher = stronger binding; conditions: glycan notation: IUPAC condensed, linker removed
Many of the other results were omitted from the sample, so the strongest signals are more common in it than they were.
Please enter met where glycan array binding signal (z-score) is greater than or equal to -0.2, and not met where it is lower.

| binder | qualitativeLabel |
| --- | --- |
| Epa22 (Candida glabrata) (protein) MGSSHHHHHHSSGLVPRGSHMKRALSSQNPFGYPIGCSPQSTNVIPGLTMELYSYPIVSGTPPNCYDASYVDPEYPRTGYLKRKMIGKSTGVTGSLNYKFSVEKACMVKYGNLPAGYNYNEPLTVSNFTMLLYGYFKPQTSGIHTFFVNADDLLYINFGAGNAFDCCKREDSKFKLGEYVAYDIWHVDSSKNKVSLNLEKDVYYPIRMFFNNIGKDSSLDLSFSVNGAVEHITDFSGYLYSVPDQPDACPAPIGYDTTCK | not met |
| RfpB (Mycobacterium tuberculosum), O05594 (protein) MAAGLVTASMSLSTAVAHAGPSPNWDAVAQCESGGNWAANTGNGKYGGLQFKPATWAAFGGVGNPAAASREQQIAVANRVLAEQGLDAWPTCGAASGLPIALWSKPAQGIKHAGPSPNWDAVAQCESGGNWAANTGNGKYGGLQFKPATWAAFGGVGNPAAASREQQIAVANRVLAEQGLDAWPTCGA | met |
| SAOUHSC 02783 (Staphylococcus aureus), Q5HD69 (protein) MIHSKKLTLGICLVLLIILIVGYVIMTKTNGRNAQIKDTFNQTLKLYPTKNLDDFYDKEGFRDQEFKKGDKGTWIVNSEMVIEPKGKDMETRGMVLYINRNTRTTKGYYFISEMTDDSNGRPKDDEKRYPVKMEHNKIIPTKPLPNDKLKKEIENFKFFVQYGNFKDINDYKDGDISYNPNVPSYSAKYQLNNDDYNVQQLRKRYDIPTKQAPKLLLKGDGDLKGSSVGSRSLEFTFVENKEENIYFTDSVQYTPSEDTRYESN | met |
| MIC4-A5 (Toxoplasma gondii), Q9XZH7 (protein) SPDFHDEVECVHTGNIGSKAQTIGEVKRASSLSECRARCQAEKECSHYTYNVKSGLCYPKRGKPQFYKYLGDMTGSRTCDTS | not met |
| CV-2L (Chromobacterium violaceum), Q7NX84 (protein) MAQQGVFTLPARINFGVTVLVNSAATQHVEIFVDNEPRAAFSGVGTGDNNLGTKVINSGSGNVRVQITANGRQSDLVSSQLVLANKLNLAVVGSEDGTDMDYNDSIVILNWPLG | not met |
| SSR1 (Sclerotium rolfsii), A0A0M3KL30 (protein) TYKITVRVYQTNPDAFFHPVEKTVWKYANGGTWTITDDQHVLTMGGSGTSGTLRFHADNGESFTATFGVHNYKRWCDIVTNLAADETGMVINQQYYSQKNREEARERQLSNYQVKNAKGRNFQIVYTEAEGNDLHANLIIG | not met |

# next binder below
Query: Could you tell me if the measured glycan array binding signal (z-score) of Pwp7 (Candida glabrata) (protein) MGSSHHHHHHSSGLVPRGSHMASKNPVDFPNLCQYPNLDGAVAGFDTEIYNADPSILINFSLWPILQFPKEWHKTIGRAITTQTNFKLPASDTTLFGVSIPTQNILIEFRGYFIPPKSGTYTFALYLTDDGSAMFLGNDAAFPCGNITSWSNPTNDQVSVSDYDPKKKTLTVYMVAGVAYPLRIAYYNREKGGSLTASFVDPDGLTHSDWNGYIWTLPSCDNCKYS reaches -0.2 or more?
Response: not met

The origin of these recorded values is the supplement of paper PMC8728848.
